Test system: biotinyl-Val-oxazolone
Protocol: self-aminoacylation, catalytic enhancement (BVO) (fold over background); higher = more active; k-Seq, kA / k0A0; sequences stand for … in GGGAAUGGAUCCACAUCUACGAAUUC…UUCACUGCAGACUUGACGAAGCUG
This sample holds only a part of the variants without activity.
Exercise: state measured self-aminoacylation for each of the sequences provided.
No unit in the answer, please; the number alone is enough.

The sequence identified as CUUACUCUGGUCAUCGAGUGA [Fam2.1 aminoacylation ribozyme variant] registered its self-aminoacylation at 3.07

The sequence identified as AAUCACCUAGGUCAUCGGGCG [Fam2.2 aminoacylation ribozyme variant] registered its self-aminoacylation at 2.77

The sequence identified as AAGUCUGCUAAUCGUCGCAAG [Fam3.1 aminoacylation ribozyme variant] registered its self-aminoacylation at 1.01

The sequence identified as AUUCACCUAUGUCAUCGAGUG [Fam2.2 aminoacylation ribozyme variant] registered its self-aminoacylation at 2.98

The sequence identified as AUUUCCCUGGUCAUCGAAUGA [Fam2.1 aminoacylation ribozyme variant] registered its self-aminoacylation at 1.12

---

Test system: biotinyl-Met-oxazolone
Protocol: self-aminoacylation, catalytic enhancement (BMO) (fold over background); higher = more active; k-Seq, kA / k0A0; sequences stand for … in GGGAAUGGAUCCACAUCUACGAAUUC…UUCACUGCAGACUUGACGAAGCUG
Fewer inactive variants are shown than the library holds.
Grouping key: self-aminoacylation. Bins: lower bin = under 0.8, middle bin = from 0.8 up to 2, upper bin = 2 and over

Categorize the following entry: AUUACACUGGUUAUCGAGUGA [Fam2.1 aminoacylation ribozyme variant] upper bin

Categorize the following entry: CUACGUCAAACAUUCGGUCUG [Fam1A.1 aminoacylation ribozyme variant] upper bin

Categorize the following entry: CUUCACCUAGGUCAUCGGGUG [Fam2.2 aminoacylation ribozyme variant] upper bin

Categorize the following entry: AUGCACCUAGGUCAGCGGGUG [Fam2.2 aminoacylation ribozyme variant] upper bin

Categorize the following entry: GCACACUUCGAGCAAUCGGUC [Fam1B.1 aminoacylation ribozyme variant] middle bin

Categorize the following entry: CAGUUUGCUAAUAGGCGCAAG [Fam3.1 aminoacylation ribozyme variant] middle bin

Categorize the following entry: AUUACCCUGGUCGUCGAAUGA [Fam2.1 aminoacylation ribozyme variant] middle bin

Categorize the following entry: ACGUUUGCUAAUAGUGGCAAG [Fam3.1 aminoacylation ribozyme variant] lower bin

Categorize the following entry: AUUACCCUGGGCAUCGAGUCA [Fam2.1 aminoacylation ribozyme variant] lower bin

Categorize the following entry: CCACAGUUCAAGCACUCGGUC [Fam1B.1 aminoacylation ribozyme variant] middle bin

Categorize the following entry: AUUCAACCAGGUCAUCGGGUG [Fam2.2 aminoacylation ribozyme variant] upper bin

Categorize the following entry: GUUCACCUAGUUCAUCGGGUG [Fam2.2 aminoacylation ribozyme variant] upper bin

Categorize the following entry: AUUAACCUGGUCACCGAGUGA [Fam2.1 aminoacylation ribozyme variant] upper bin

Categorize the following entry: AUAACCCUGGUAAUCGAGUGA [Fam2.1 aminoacylation ribozyme variant] upper bin

Categorize the following entry: AUUACCCUGGCCAUCGAUUGA [Fam2.1 aminoacylation ribozyme variant] middle bin

Categorize the following entry: ACGUUUGCUAAUAGUUGCAAG [Fam3.1 aminoacylation ribozyme variant] middle bin

Categorize the following entry: CUACUUCAAACAGUCGGACUG [Fam1A.1 aminoacylation ribozyme variant] lower bin

Categorize the following entry: AUUACCCUGGUUCUCGAGUGA [Fam2.1 aminoacylation ribozyme variant] upper bin

Categorize the following entry: CUACUUCAAACAAGCGGGCUG [Fam1A.1 aminoacylation ribozyme variant] middle bin

Categorize the following entry: UAGUUUGCUAAGAGUCGCAAG [Fam3.1 aminoacylation ribozyme variant] middle bin

Categorize the following entry: CUAUUUCAAACAAUCGGUCUC [Fam1A.1 aminoacylation ribozyme variant] lower bin

Categorize the following entry: AUUGCCCUGGUCAUCGAGGGA [Fam2.1 aminoacylation ribozyme variant] upper bin

Categorize the following entry: AUGUUUGCUAAUAGUGGCAAG [Fam3.1 aminoacylation ribozyme variant] lower bin

Categorize the following entry: CUACUUCAAACAAUGGGUCUA [Fam1A.1 aminoacylation ribozyme variant] lower bin

Categorize the following entry: AUUCACCUAGGACAUCUGGUG [Fam2.2 aminoacylation ribozyme variant] upper bin

Categorize the following entry: CCACACUUGAAGCAAUCCGUC [Fam1B.1 aminoacylation ribozyme variant] middle bin

Categorize the following entry: CCACACUCCAAGAAAUCGGUC [Fam1B.1 aminoacylation ribozyme variant] lower bin

Categorize the following entry: CCACACUUCAAGCAAGCGUUC [Fam1B.1 aminoacylation ribozyme variant] lower bin

Categorize the following entry: AUUAACCUAGGUCAACGGGUG [Fam2.2 aminoacylation ribozyme variant] upper bin

Categorize the following entry: AUUCACUUAGGUCAUCGGGUG [Fam2.2 aminoacylation ribozyme variant] upper bin

Categorize the following entry: AAGUUUGCUAAAAGUUGCAAG [Fam3.1 aminoacylation ribozyme variant] middle bin
